Tested on: SARS-CoV-2 (USA-WA1/2020) in Calu-3 cells
Assay type: cell-based
Settings: low dose (100 nM), Calu-3, 48 h

{"COMPOUND": "COc1cc2nccc(Oc3ccc(NC(=O)C4(C(=O)Nc5ccc(F)cc5)CC4)cc3)c2cc1OC [Cabozantinib (XL184, BMS-907351)]", "UNIT ANNOTATION": "AU", "dsRNA signal, AU Low": 39205.8}
{"COMPOUND": "c1cn2cc(-c3ccc4cn[nH]c4c3)nc(Nc3ccc(N4CCOCC4)cc3)c2n1", "UNIT ANNOTATION": "AU", "dsRNA signal, AU Low": 51541.3}
{"COMPOUND": "O=C(NCc1ccccc1)c1csc(Nc2ccncn2)n1", "UNIT ANNOTATION": "AU", "dsRNA signal, AU Low": 26827.3}
{"COMPOUND": "COc1cc(OC)c(/C=C/S(=O)(=O)Cc2ccc(OC)c(NCC(=O)O)c2)c(OC)c1", "UNIT ANNOTATION": "AU", "dsRNA signal, AU Low": 4849.9}
{"COMPOUND": "Cn1cnc2c(F)c(Nc3ccc(Br)cc3Cl)c(C(=O)NOCCO)cc21 [AZD6244 (Selumetinib)]", "UNIT ANNOTATION": "AU", "dsRNA signal, AU Low": 3732.5}
{"COMPOUND": "CCc1cnn2c(NCc3ccc[n+]([O-])c3)cc(N3CCCC[C@H]3CCO)nc12 [Dinaciclib (SCH727965)]", "UNIT ANNOTATION": "AU", "dsRNA signal, AU Low": 0.0}
{"COMPOUND": "CC(C)(C)C(=O)Nc1ccc2c(c1)C(=O)C(=O)c1ccccc1-2", "UNIT ANNOTATION": "AU", "dsRNA signal, AU Low": 12301.2}
{"COMPOUND": "Cc1cccc(-c2[nH]c(C(C)(C)C)nc2-c2ccc3nccnc3c2)n1", "UNIT ANNOTATION": "AU", "dsRNA signal, AU Low": 27941.4}
{"COMPOUND": "Cc1ccc(C(=O)Nc2ccc(CN3CCN(C)CC3)c(C(F)(F)F)c2)cc1C#Cc1cnc2[nH]ncc2c1", "UNIT ANNOTATION": "AU", "dsRNA signal, AU Low": 33439.8}
{"COMPOUND": "CC(C)C[C@H](N)C(=O)O", "UNIT ANNOTATION": "AU", "dsRNA signal, AU Low": 18120.1}
{"COMPOUND": "COc1cc([C@@H]2c3cc4c(cc3[C@H](O)[C@H]3COC(=O)[C@@H]23)OCO4)cc(OC)c1OC", "UNIT ANNOTATION": "AU", "dsRNA signal, AU Low": 31807.4}
{"COMPOUND": "CNC(=O)c1cc(Oc2ccc(NC(=O)Nc3ccc(Cl)c(C(F)(F)F)c3)c(F)c2)ccn1.Cl [Regorafenib hydrochloride]", "UNIT ANNOTATION": "AU", "dsRNA signal, AU Low": 22021.0}
{"COMPOUND": "C#Cc1cccc(Nc2ncnc3cc4c(cc23)OCCOCCOCCO4)c1", "UNIT ANNOTATION": "AU", "dsRNA signal, AU Low": 24561.1}
{"COMPOUND": "Nc1ccc(O)c(C(=O)O)c1", "UNIT ANNOTATION": "AU", "dsRNA signal, AU Low": 2129.6}
{"COMPOUND": "O=c1[nH]c2ccccc2n1C1CCN(Cc2ccc(-c3nc4cc5[nH]cnc5cc4nc3-c3ccccc3)cc2)CC1", "UNIT ANNOTATION": "AU", "dsRNA signal, AU Low": 47838.1}
{"COMPOUND": "COC(=O)Nc1nc2ccc([S+]([O-])c3ccccc3)cc2[nH]1 (centres unmarked)", "UNIT ANNOTATION": "AU", "dsRNA signal, AU Low": 47370.5}
{"COMPOUND": "CC(C)=CC[C@@H](O)C1=CC(=O)c2c(O)ccc(O)c2C1=O", "UNIT ANNOTATION": "AU", "dsRNA signal, AU Low": 4009.3}

Origin of measurements: paper PMC12142043
